Exercise: for every item that follows, state its recorded Kp uu.
Test: Unbound brain to plasma concentration ratio in mouse
Assay type: ADME, cell-free
Conditions: read-out: K(p,uu,brain)
Kindly provide the number alone.

Dear colleague, please send me the reported Kp uu for COc1cc(C(=O)NCC2(N(C)C)CCCC2)cc(OC)c1OCc1ccccc1 when you can.
0.5

Answer with the recorded Kp uu for the compound listed here: N[C@@H](COC(c1cccc(F)c1)c1ccccc1OCc1ccccc1)C(=O)O (some centres not stated)
0.036

###

Molecular target: UniProt:P28223
Sequence (P28223 whole entry): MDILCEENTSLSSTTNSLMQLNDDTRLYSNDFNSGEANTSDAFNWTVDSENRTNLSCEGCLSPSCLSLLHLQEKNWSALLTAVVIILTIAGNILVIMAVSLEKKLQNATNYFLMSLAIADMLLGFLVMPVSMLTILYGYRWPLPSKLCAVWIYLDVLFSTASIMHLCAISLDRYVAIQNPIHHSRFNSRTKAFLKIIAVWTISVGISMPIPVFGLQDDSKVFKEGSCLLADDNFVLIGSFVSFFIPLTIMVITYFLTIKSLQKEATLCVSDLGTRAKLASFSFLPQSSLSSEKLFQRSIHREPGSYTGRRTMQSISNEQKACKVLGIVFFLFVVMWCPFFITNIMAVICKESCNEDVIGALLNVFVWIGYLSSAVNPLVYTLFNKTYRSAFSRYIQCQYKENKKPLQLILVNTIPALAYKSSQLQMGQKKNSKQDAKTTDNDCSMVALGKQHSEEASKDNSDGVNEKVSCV
Experiment: Antagonist activity at human 5-HT2A
RECORDED_METRIC: IC50 (µM)
A number alone suffices; assume µM.

Please look at this molecule and report its IC50: CCCCOc1c(OC)cc(C(=O)NCC2(N(C)C)CCOCC2)cc1OC
1.3
